Assay: MM1S myeloma cell viability, profiling panel, resazurin fluorescence, basal, 24 h, PK04 Diversity Set (AID 1174);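 also: MM1S multiple myeloma cell line; test concentration not given here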
Conditions: higher = more signal, called active from +8 up or from −8 down
readout type: z-score
// print number alone

For the compound shown here, C=C(C)C(=O)OC[C@H]1CN2[C@@H](CC[C@@H](C)[C@@H]2c2ccc(Br)cc2)C(=O)O1 , give the reported z-score.
-0.255

Another compound: C[C@@H]1CC[C@H]2C(=O)N3[C@@H](CC[C@@H](C)[C@@H]3c3ccc(Br)cc3)C(=O)N2[C@H]1c1ccc(Br)cc1
0.208

Another compound: CCOC(=O)[C@H](CC(C)C)NC(=O)CCC1CC(OC(=O)NCc2ccc3c(c2)OCO3)CC2(CCCC(COC(=O)NCCOc3ccccc3)O2)O1 (some centres undefined)
0.691

***
For the compound shown here, CCOC(=O)CCN1C(=O)[C@H]2[C@H]3[C@H](O)[C@H](O)CC(=NO[C@@H]4O[C@H](CO)[C@@H](O)[C@H](O)[C@H]4O)[C@@H]3CC[C@H]2C1=O , give the reported z-score.
-0.481

---

System: Sonic hedgehog protein (Shh)
Assay: small-molecule binders of Shh protein, primary screen, biochemical, small-molecule microarray, 635/667 nm fluorescence (AID 1151);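 also: Shh protein binding to compounds spotted on small-molecule microarray slides; score combines spot fluorescence intensity with signal-to-noise across triplicate slides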
Conditions: small-molecule microarray binding, 635 nm fluorescence; higher = more signal
Label scheme, based on composite z-score: bucket 1: < 0.4; bucket 2: ≥ 0.4 and < 0.9; bucket 3: ≥ 0.9

Examples from the recorded data:
Where would COC(=O)[C@H](C)NC(=O)CCC1CC(OC(=O)NCc2cccc3ccccc23)CC2(CCCC(COC(=O)NCc3ccccc3)O2)O1 (some centres not stated) land among the classes by reported composite z-score?
bucket 3

Another compound: COc1ccc(O[C@H]2C=C[C@@H](c3ccccc3)O[C@@H]2CON=C(C)CCN2CCCc3nc(C)c(C)cc32)cc1
bucket 2

***
Where would CC(C)=NOC(C)CN1CCCCc2nc(C)c(C)cc21 (configuration not stated) land among the classes by reported composite z-score?
bucket 2

Another compound: CC(=O)OC[C@H]1O[C@H](CC=NOC[C@@H](O)[C@H]2O[C@@H]3OC(C)(C)O[C@@H]3[C@H]2O)C=C[C@@H]1OC(C)=O
bucket 1

---

Test: E. coli acrAB mutant growth effects, primary screen, E. coli filamentation inducers, strain DRC39, OD650, 24 h (AID 1178);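 also: growth measured as culture turbidity by optical density at 650 nm; test concentration not given here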
Conditions: higher = more signal, called active from +8 up or from −8 down
Returns Met if the recorded z-score is greater than or equal to 0.1, and Not met otherwise.

Examples from the recorded data:
Could you tell me if the measured z-score of COC(=O)[C@H](C)NC(=O)CC=C[C@@H](C)[C@@H]1C=C[C@H](O)[C@@H](CO)O1 reaches 0.1 or more?
Met

Another molecule: COCOc1ccc(Br)cc1C(=O)C=Cc1ccc2c(c1)OCO2
Met

Another molecule: COc1ccc(O[C@H]2C=C[C@@H](c3ccccc3)O[C@@H]2COC(=O)CCC(C)=NOC[C@@H](O)COCc2ccco2)cc1
Not met

Another molecule: COC(OC)[C@@H](C)[C@H](OC)[C@@H](C)[C@H](OC)c1ccccc1
Met

Another molecule: C=CC[C@@H]1C=C[C@H](ON=C(C)CCN2CCCCc3nc(C)c(C)cc32)[C@@H](CO)O1
Not met

Another molecule: O=C(NN=C1C[C@@H](O)[C@@H](O)[C@@H]2[C@@H]3C(=O)N(c4ccc(F)cc4F)C(=O)[C@@H]3CC[C@H]12)OCc1ccccc1
Met

Another molecule: Cc1cc2c(nc1C)CCCCN2CC(O)CN1CCCc2nc(-c3ccc(Br)cc3)ccc21 (stereo unspecified)
Met

Another molecule: CCOC(=O)[C@H](CC(C)C)NC(=O)CCC1CC(OC(=O)NCc2ccc3c(c2)OCO3)CC2(CCCC(COC(=O)NCc3ccccc3)O2)O1 (stereo partly specified)
Met

Another molecule: CCOC(=O)CCN1C(=O)[C@H]2[C@H]3[C@H](O)[C@H](O)CC(=NOCC=C(C)CCC=C(C)C)[C@@H]3CC[C@H]2C1=O
Not met

Another molecule: C[C@@H]1CC[C@@H](C(=O)O)N[C@H]1c1cccc(N2CCOCC2)c1
Met

***
Could you tell me if the measured z-score of C#CCCCON=C1C[C@@H](O)[C@@H](O)[C@@H]2[C@@H]3C(=O)N(C4CCCCC4)C(=O)[C@@H]3CC[C@@H]12 reaches 0.1 or more?
Met

Another molecule: COc1ccc(COC(=O)NN=C2C[C@@H](O)[C@@H](O)[C@@H]3[C@@H]4C(=O)N(C5CCCCC5)C(=O)[C@@H]4CC[C@@H]23)cc1
Not met

Another molecule: COCC#Cc1ccc([C@@H]2N[C@H](C(=O)O)CC[C@H]2C)cc1
Met

Another molecule: O=C1C2=CC[C@H]3C(=O)N(C[C@@H]4CCCO4)C(=O)[C@H]3[C@H]2[C@H](O)[C@@H]2O[C@H]12
Not met

Another molecule: O=C(NN=C1C[C@@H](O)[C@@H](O)[C@@H]2[C@@H]3C(=O)N(Cc4ccc5c(c4)OCO5)C(=O)[C@@H]3CC[C@@H]12)OCc1ccccc1
Met
